Experiment: Ratio of drug level in milk to serum in jugular and femoral vein-cannulated lactating Sprague-Dawley rat at 0.4 mg/ml, iv administered as infusion in presence of GF120918
Assay type: ADME, organism-based
Conditions: female, with GF120918
Readout Type: Kp

| Compound | Readout Type | Reported |
| --- | --- | --- |
| COc1ccnc(C[S+]([O-])c2nc3cc(OC(F)F)ccc3[n-]2)c1OC.O.[Na+] (stereo in doubt; (-)) [PANTOPRAZOLE SODIUM] | Kp | 0.5 |

###

Assay: Protein binding in human serum
Format: ADME, cell-free
Details: read-out: PB
Readout Type: fraction unbound

| Molecule | Reported |
| --- | --- |
| COc1ccnc(C[S+]([O-])c2nc3ccc(OC(F)F)cc3[nH]2)c1OC (stereo unspecified) [PANTOPRAZOLE SODIUM] | < 0.02 |

###

Test: Fraction unbound in jugular and femoral vein-cannulated lactating Sprague-Dawley rat whole milk at 0.4 mg/ml, iv administered as infusion after 8 hrs by equilibrium dialysis method
Format: ADME, organism-based
Conditions: female, Sprague-Dawley, whole milk, 0.4 mg/ml

| Compound | fraction unbound at 8 h |
| --- | --- |
| COc1ccnc(C[S+]([O-])c2nc3cc(OC(F)F)ccc3[n-]2)c1OC.O.[Na+] (stereo in doubt; (-)) [PANTOPRAZOLE SODIUM] | 0.271 |
